RESULT TYPE: melting point

>>> recorded_value("CN(C)CC#C[C@H]1CC[C@H](N(C)c2ncc(Br)cn2)CC1")
"83 to 84 °C (dec.)"
>>> recorded_value("CN(C)C[C@H]1CC[C@H](CCNc2ncc(Br)cn2)CC1")
"108.3 to 109.5 °C"
>>> recorded_value("CCCc1cnc(N(C)C[C@H]2CC[C@H](C#CCN(C)C)CC2)nc1")
"49 to 50 °C"
>>> recorded_value("CN(C)CC#C[C@H]1CC[C@H](CN(C)c2ncc(Br)cn2)CC1")
"71 to 72 °C"
